# System: SK-MEL-147
# test name: MTT cytotoxicity assay
# Type: cell-based, Human
# condition parameters: Homo sapiens, SK-MEL-147, 72 h, SK-MEL-147, 72 h treatment, MTT
# Procedure: Human cell lines were used throughout this program. […] Cytotoxic activity was evaluated by the transformation of 3-(4,5-dimethylthiazol-2-yl)-2,5-diphenyltetrazolium bromide (MTT; Thermo Fisher Scientific, San Jose, CA, USA) into formazan by viable cells. […] The plates were dried at 50 °C for 30 min and formazan was solubilized in DMSO (150 µL/well) for the absorbance measure at 570 nm on a plate reader (Thermo Fisher Scientific, San Jose, CA, USA). […]
Criterion: IC50 strictly less than 100 nM. Met: class 1. Not met: class 0.

compound	tested system	category label
NCCCCCCNC(=O)CCc1ccc2c(=O)c3sc4c(=O)c5ccccc5c(=O)c4c3c(=O)c2c1	SK-MEL-147	class 0
O=C(O)CCc1ccc2c(=O)c3sc4c(=O)c5ccccc5c(=O)c4c3c(=O)c2c1	SK-MEL-147	class 0
COc1cccc2c1C(=O)c1c(O)c3c(c(O)c1C2=O)C[C@@](O)(C(=O)CO)C[C@@H]3O[C@H]1C[C@H](N)[C@H](O)[C@H](C)O1 [DOX, doxorubicin, reference compound]	SK-MEL-147	class 0
O=c1c2ccccc2c(=O)c2c1sc1c(=O)c3ccccc3c(=O)c12	SK-MEL-147	class 0
N[C@H]1CCN(C(=O)CCc2ccc3c(=O)c4sc5c(=O)c6ccccc6c(=O)c5c4c(=O)c3c2)C1	SK-MEL-147	class 1

----------
# Tested on: FDH
# test name: MTT cytotoxicity assay
# Type: cell-based, Human
# condition parameters: Homo sapiens, Fibroblast, 72 h, FDH primary fibroblasts, 72 h treatment
test readout: IC50

molecule	measured value
N[C@H]1CCN(C(=O)CCc2ccc3c(=O)c4sc5c(=O)c6ccccc6c(=O)c5c4c(=O)c3c2)C1	930 nM
O=C(O)CCc1ccc2c(=O)c3sc4c(=O)c5ccccc5c(=O)c4c3c(=O)c2c1	3500 nM
NCCCCCCNC(=O)CCc1ccc2c(=O)c3sc4c(=O)c5ccccc5c(=O)c4c3c(=O)c2c1	1010 nM
CC(C)(O)C(O)CCc1ccc2c(=O)c3sc4c(=O)c5ccccc5c(=O)c4c3c(=O)c2c1 (stereo not drawn)	1170 nM
COc1cccc2c1C(=O)c1c(O)c3c(c(O)c1C2=O)C[C@@](O)(C(=O)CO)C[C@@H]3O[C@H]1C[C@H](N)[C@H](O)[C@H](C)O1 [DOX, doxorubicin, reference compound]	780 nM
O=c1c2ccccc2c(=O)c2c1sc1c(=O)c3ccccc3c(=O)c12	1150 nM

----------
# Test system: MM200
# test name: MTT cytotoxicity assay
# Format: cell-based, Human
# condition parameters: Homo sapiens; MM200, 72 h treatment, MTT
pIC50: −log10 of the molar value.

compound	pIC50
COc1cccc2c1C(=O)c1c(O)c3c(c(O)c1C2=O)C[C@@](O)(C(=O)CO)C[C@@H]3O[C@H]1C[C@H](N)[C@H](O)[C@H](C)O1 [DOX, doxorubicin, reference compound]	7.00

----------
Selectivity Index (SI) for assorted compounds
# Tested on: MM200
# test name: MTT cytotoxicity assay
# Type: cell-based, Human
# condition parameters: MM200 versus FDH, 72-h IC50 ratio

compound	Selectivity Index (SI)
COc1cccc2c1C(=O)c1c(O)c3c(c(O)c1C2=O)C[C@@](O)(C(=O)CO)C[C@@H]3O[C@H]1C[C@H](N)[C@H](O)[C@H](C)O1 [DOX, doxorubicin, reference compound]	7.8
NCCCCCCNC(=O)CCc1ccc2c(=O)c3sc4c(=O)c5ccccc5c(=O)c4c3c(=O)c2c1	0.9
O=C(O)CCc1ccc2c(=O)c3sc4c(=O)c5ccccc5c(=O)c4c3c(=O)c2c1	2.4
CC(C)(O)C(O)CCc1ccc2c(=O)c3sc4c(=O)c5ccccc5c(=O)c4c3c(=O)c2c1 (stereo not drawn)	1.6
O=c1c2ccccc2c(=O)c2c1sc1c(=O)c3ccccc3c(=O)c12	0.8
N[C@H]1CCN(C(=O)CCc2ccc3c(=O)c4sc5c(=O)c6ccccc6c(=O)c5c4c(=O)c3c2)C1	3.1

----------
# Test system: SK-MEL-19
# test name: MTT cytotoxicity assay
# Format: cell-based, Human
# condition parameters: SK-MEL-19 versus MRC-5, 72-h IC50 ratio

molecule	tested system	Selectivity Index (SI)
N[C@H]1CCN(C(=O)CCc2ccc3c(=O)c4sc5c(=O)c6ccccc6c(=O)c5c4c(=O)c3c2)C1	SK-MEL-19	14.0
O=C(O)CCc1ccc2c(=O)c3sc4c(=O)c5ccccc5c(=O)c4c3c(=O)c2c1	SK-MEL-19	13.0
O=c1c2ccccc2c(=O)c2c1sc1c(=O)c3ccccc3c(=O)c12	SK-MEL-19	10.7
COc1cccc2c1C(=O)c1c(O)c3c(c(O)c1C2=O)C[C@@](O)(C(=O)CO)C[C@@H]3O[C@H]1C[C@H](N)[C@H](O)[C@H](C)O1 [DOX, doxorubicin, reference compound]	SK-MEL-19	0.1
CC(C)(O)C(O)CCc1ccc2c(=O)c3sc4c(=O)c5ccccc5c(=O)c4c3c(=O)c2c1 (stereo not drawn)	SK-MEL-19	39.3
NCCCCCCNC(=O)CCc1ccc2c(=O)c3sc4c(=O)c5ccccc5c(=O)c4c3c(=O)c2c1	SK-MEL-19	7.7
